Listing: selectivity ratio of selected molecules
experiment summary: in vitro
conditions used: human, MRC5 SV2 cells
Description: Selectivity index, ratio of IC50 for human MRC5 SV2 cells to IC50 for Trypanosoma cruzi Tulahuen CL2 amastigotes infected in human MRC5 SV2 cells

Worked cases, answers included:
>  <molecule>
CC(C)c1cc(C(=O)N2CCCC(O)(c3cc4ncccc4[nH]3)C2)on1 (configuration not stated)

>  <selectivity ratio>
1.9

$$$$
>  <molecule>
CC(C)c1cc(C(=O)N2CCCC(c3cc4ncccc4[nH]3)C2)on1 (configuration not stated)

>  <selectivity ratio>
8.25 to 22.1

$$$$
>  <molecule>
O=C(c1cc(C(F)(F)F)no1)N1CCCC(c2cc3ncccc3[nH]2)C1 (configuration not stated)

>  <selectivity ratio>
15.7

$$$$
>  <molecule>
O=C(c1cc(C2CC2)no1)N1CCCC(c2cc3ncccc3[nH]2)C1 (configuration not stated)

>  <selectivity ratio>
15.8

$$$$
>  <molecule>
O=C(Nc1cccc(-c2cc3ncccc3[nH]2)c1)c1ccccc1

>  <selectivity ratio>
30.7

$$$$
>  <molecule>
O=C(c1ccc(F)cc1)N1CC=C(c2cc3ncccc3[nH]2)CC1

>  <selectivity ratio>
25.1

$$$$
>  <molecule>
COc1ccc2cc(C(=O)N3CCCC(c4cc5ncccc5[nH]4)C3)[nH]c2c1 (configuration not stated)

>  <selectivity ratio>
7.95

$$$$
>  <molecule>
COc1ccc(Cl)cc1C(=O)N1CCCC(c2cc3ncccc3[nH]2)C1 (configuration not stated)

>  <selectivity ratio>
8.54

$$$$
>  <molecule>
COc1cc(C(=O)N2CCCC(c3cc4ncccc4[nH]3)C2)on1 (configuration not stated)

>  <selectivity ratio>
7.9

$$$$
>  <molecule>
COc1ccc(OC)c2[nH]c(C(=O)N3CCCC(c4cc5ncccc5[nH]4)C3)cc12 (configuration not stated)

>  <selectivity ratio>
18.9

$$$$

Continue with the molecule presented below.
-- ask Item under review: O=C(c1cc(C2CC2)no1)N1CCOC(c2cc3ncccc3[nH]2)C1 (configuration not stated) . Reported selectivity ratio?
-- reply 1.85

---

experiment summary: in vitro
conditions used: mouse, liver microsomes
Description: Metabolic stability in mouse liver microsomes assessed as intrinsic clearance at 0.5 uM incubated for 30 mins by LC-MS/MS analysis
Assign class by microsomal CLint at 0.5 h, 0.5 µM: not lower than 200 µL/min/mg means label 1; lower than 200 µL/min/mg means label 0.

Field: example entries. Status: answers known.
>  <compound>
O=C(c1ccc(F)cc1)N1CCCC(c2cc3nc(C(F)(F)F)ccc3[nH]2)C1 (stereo unspecified)

>  <cat>
label 1

$$$$
>  <compound>
O=C(c1ccccc1)N1CCCC(c2cc3ncccc3[nH]2)C1 (stereo unspecified)

>  <cat>
label 1

$$$$
>  <compound>
O=C(CCc1nc2cccnc2n1CCO)Nc1ccccc1

>  <cat>
label 0

$$$$
>  <compound>
CN(CCc1cc2ncccc2[nH]1)C(=O)c1ccccc1

>  <cat>
label 1

$$$$
>  <compound>
O=C(Nc1cccc(-c2cc3ncccc3[nH]2)c1)c1ccccc1

>  <cat>
label 1

$$$$

Okay, next one:
-- ask Form field: microsomal CLint at 0.5 h, 0.5 µM at least 200 µL/min/mg? Entry: Cc1nc(C)c(C(=O)N2CCCC(c3cc4ncccc4[nH]3)C2)o1 (stereo unspecified)
-- reply label 0

---

Each entry below carries its reported IC90.
Test system: Trypanosoma brucei rhodesiense
experiment summary: microbe, parasite or virus in culture
conditions used: STIB900, 72 h
Description: Antiprotozoal activity against Trypanosoma brucei rhodesiense STIB900 trypomastigotes incubated for 72 hrs by resazurin dye based fluorimetric analysis
State just the number; it will be interpreted in µM.

Known IC90 results, listed for orientation:
>  <molecule>
O=C(c1cc(C(F)(F)F)no1)N1CCCC(c2cc3ncc(Br)cc3[nH]2)C1 (stereo not given)

>  <tgt>
Trypanosoma brucei rhodesiense

>  <measurement type>
IC90

>  <assay value>
62.7

$$$$
>  <molecule>
COc1ccc(Cl)cc1C(=O)N1CCCC(c2cc3ncccc3[nH]2)C1 (stereo not given)

>  <tgt>
Trypanosoma brucei rhodesiense

>  <measurement type>
IC90

>  <assay value>
32

$$$$
>  <molecule>
CCN(CCc1nc2ncc(Cl)cc2[nH]1)C(=O)c1ccc(F)cc1

>  <tgt>
Trypanosoma brucei rhodesiense

>  <measurement type>
IC90

>  <assay value>
57.6

$$$$
>  <molecule>
O=C(c1cc(C2CC2)no1)N1CCOC(c2cc3ncccc3[nH]2)C1 (stereo not given)

>  <tgt>
Trypanosoma brucei rhodesiense

>  <measurement type>
IC90

>  <assay value>
64

$$$$
>  <molecule>
CN(CC(O)c1cc2ncccc2n1S(=O)(=O)c1ccccc1)C(=O)c1ccccc1 (stereo not given)

>  <tgt>
Trypanosoma brucei rhodesiense

>  <measurement type>
IC90

>  <assay value>
64

$$$$

-- ask API: value(readout= IC90, system= Trypanosoma brucei rhodesiense, query= CCCC(=O)N1CCCC(O)(c2cc3ncccc3[nH]2)C1 (stereo not given) )
-- reply 64

-- ask Report IC90 for O=C(c1cc(C(F)(F)F)no1)N1CCCC(c2cc3ncc(-c4ccccc4)cc3[nH]2)C1 (stereo not given) tested on Trypanosoma brucei rhodesiense.
-- reply 64

---

experiment summary: physchem
conditions used: buffer, pH 7.4
Description: Lipophilicity, logD of compound at pH 7.4 by HPLC analysis
Recorded logD determines the label; the label ranges are c1 = under 2, c2 = from 2 up to 3, c3 = 3 and over

Reference set (2 entries):
>  <compound>
O=C(c1ccc(F)cc1)N1CCCC(c2cc3nc(Cl)ccc3[nH]2)C1 (configuration not stated)

>  <cat>
c3

$$$$
>  <compound>
O=C(c1ccccc1)N1CC=C(c2cc3ncccc3[nH]2)CC1

>  <cat>
c2

$$$$

Next, consider the following compound.
-- ask Please classify: N#Cc1ccc(C(=O)N2CCCC(c3cc4ncccc4[nH]3)C2)cc1 (configuration not stated)
-- reply c2

---

experiment summary: physchem
conditions used: buffer, pH 7.4
Item-by-item account of logD
Answer with a number only.

>  <compound>
O=C(c1cc(C(F)(F)F)no1)N1CCCC(c2cc3nc(NCc4ccccc4)ccc3[nH]2)C1 (stereo not drawn)

>  <logD>
4.4

$$$$

-- ask Dear colleague, I am looking for the recorded logD of the following compound: Nc1cc(C2CCCN(C(=O)c3cc(C(F)(F)F)no3)C2)[nH]n1 (stereo not drawn)
-- reply 1.77

-- ask Record request: logD value, item "O=C(CCc1nc2ncc(Cl)cc2[nH]1)Nc1cccc(F)c1"
-- reply 3.24

-- ask What value of logD has been reported for the following compound? COc1ccc(C(=O)N2CCCC(c3cc4ncccc4[nH]3)C2)cc1OC (stereo not drawn)
-- reply 2.61

-- ask Dear colleague, I am looking for the recorded logD of the following compound: O=C(c1cc(C(F)(F)F)no1)N1CCC(c2cc3ncccc3[nH]2)C1 (stereo not drawn)
-- reply 3.12

---

Test system: Leishmania infantum
experiment summary: microbe, parasite or virus in culture
conditions used: MHOM/MA(BE)/67/ITMAP263, in Mus musculus, 120 h
Description: Antileishmanial activity against amastigote stage of Leishmania infantum MHOM/MA(BE)/67/ITMAP263 infected in mouse peritoneal macrophage assessed as parasite growth inhibition incubated for 5 days by Giemsa staining based assay
measurement type: IC90 (µM)
Note: unit µM is implicit; provide only the numeric part.

The cases that follow already have their IC90 on record.
>  <molecule>
O=C(c1cc(C(F)(F)F)no1)N1CCOC(c2cc3ncccc3[nH]2)C1 (centres undefined)

>  <assay value>
64

$$$$
>  <molecule>
Cn1nccc1C(=O)N1CCCC(c2cc3ncccc3[nH]2)C1 (centres undefined)

>  <assay value>
64

$$$$
>  <molecule>
COc1ccc(OC)c2[nH]c(C(=O)N3CCCC(c4cc5ncccc5[nH]4)C3)cc12 (centres undefined)

>  <assay value>
32

$$$$

# context switch: different molecule, same IC90
-- ask Query: IC90; subject: "O=C(c1ccccc1)N1CC=C(c2cc3ncccc3[nH]2)CC1"
-- reply 46.1

---

experiment summary: in vitro
conditions used: human, MRC5 SV2 cells
Description: Selectivity index, ratio of IC50 for human MRC5 SV2 cells to IC50 for Trypanosoma brucei rhodesiense STIB900 trypomastigotes
We label by threshold. Values of selectivity ratio strictly beneath 3 are YES. Values of 3 and up are NO.

Solved entries:
>  <compound>
O=C(c1ccc(F)cc1)N1CCCC(c2cc3ncc(Cl)cc3[nH]2)C1 (stereo not given)

>  <cat>
NO

$$$$
>  <compound>
O=C(Nc1ccc(-c2cc3ncccc3[nH]2)cc1)c1ccccc1

>  <cat>
YES

$$$$

-- ask # TODO verify selectivity ratio < 3 strictly for this compound: COc1ccc(OC)c2[nH]c(C(=O)N3CCCC(c4cc5ncccc5[nH]4)C3)cc12 (stereo not given)
-- reply YES

-- ask # strict comparison: is reported selectivity ratio < 3? input = O=C(c1cc(C(F)(F)F)no1)N1CCCC(c2cc3ncc(Br)cc3[nH]2)C1 (stereo not given)
-- reply YES

-- ask I'd appreciate it if you could check whether O=C(c1ccc(F)cc1)N1CCCC(c2cc3nc(N4CCCC4)ccc3[nH]2)C1 (stereo not given) has selectivity ratio smaller than 3.
-- reply NO

---

experiment summary: in vitro
conditions used: mouse, liver microsomes
# cutoff 2000 mL/min/kg applies to CLint scaled at 0.5 h, 0.5 µM; >= gives T, < gives F

>  <molecule>
CCN(CCC(=O)Nc1cccnc1)C(=O)c1ccc(F)cc1

>  <cat>
F

$$$$
>  <molecule>
CCC(=O)N1CCCC(c2nc3ncc(Cl)cc3[nH]2)C1 (stereo unspecified)

>  <cat>
F

$$$$
>  <molecule>
COc1ccc(OC)c2[nH]c(C(=O)N3CCCC(c4cc5ncccc5[nH]4)C3)cc12 (stereo unspecified)

>  <cat>
T

$$$$

Kindly consider the entry below.
-- ask Given the entry O=C(c1ccccc1)N1CCCC(c2cn3ncccc3n2)C1 (stereo unspecified) , answer whether its CLint scaled at 0.5 h, 0.5 µM meets or surpasses 2000 mL/min/kg.
-- reply T
